Target Entity: porcine tubulin (Sus scrofa, UniProt P02550+P02554)
Sequence (P02554 whole entry): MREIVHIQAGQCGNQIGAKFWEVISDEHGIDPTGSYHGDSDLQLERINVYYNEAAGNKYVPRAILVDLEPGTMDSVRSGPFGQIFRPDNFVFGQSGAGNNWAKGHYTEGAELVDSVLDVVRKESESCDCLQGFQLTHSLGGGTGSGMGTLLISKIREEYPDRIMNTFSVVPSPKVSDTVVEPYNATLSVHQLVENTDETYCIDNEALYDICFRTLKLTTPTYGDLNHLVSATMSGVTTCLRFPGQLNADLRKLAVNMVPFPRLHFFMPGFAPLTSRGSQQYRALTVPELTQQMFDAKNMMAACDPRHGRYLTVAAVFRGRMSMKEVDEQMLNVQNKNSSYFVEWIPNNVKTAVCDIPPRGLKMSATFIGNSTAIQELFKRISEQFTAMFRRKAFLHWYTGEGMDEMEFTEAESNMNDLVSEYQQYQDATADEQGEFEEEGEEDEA
Sequence (P02550 whole entry): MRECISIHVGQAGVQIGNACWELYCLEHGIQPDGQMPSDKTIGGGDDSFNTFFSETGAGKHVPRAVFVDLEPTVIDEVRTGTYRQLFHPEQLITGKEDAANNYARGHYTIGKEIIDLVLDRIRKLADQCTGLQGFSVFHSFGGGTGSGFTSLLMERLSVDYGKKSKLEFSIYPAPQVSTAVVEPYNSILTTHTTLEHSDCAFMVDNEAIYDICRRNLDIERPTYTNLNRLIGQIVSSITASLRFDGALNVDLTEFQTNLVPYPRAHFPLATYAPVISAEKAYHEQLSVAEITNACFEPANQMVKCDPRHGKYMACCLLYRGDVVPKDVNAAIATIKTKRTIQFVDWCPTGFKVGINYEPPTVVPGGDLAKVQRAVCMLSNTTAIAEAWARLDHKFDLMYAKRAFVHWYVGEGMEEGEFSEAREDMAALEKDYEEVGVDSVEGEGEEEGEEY
Experimental Protocol: Activity for inhibiting microtubule polymerization using porcine tubulins (2), microtubule polymerization rate; note: test concentration or dose not given here
Assay Setup: 60 minutes after assay initiation; relative to wells without compound; lower = stronger inhibition
Please provide measured Microtubule polymerization rate (%) for the entries that follow.
Param answer (str): number followed by unit.

Memo: CN[C@H](C(=O)N[C@H](C(=O)N(C)[C@H](/C=C(\C)C(=O)N[C@H](CCC(=O)O)C(=O)O)C(C)C)C(C)(C)C)C(C)(C)c1cccc(C)c1 [Example 68] , reported Microtubule polymerization rate (%): 4%

Memo: CN[C@H](C(=O)N[C@H](C(=O)N(C)[C@H](/C=C(\C)C(=O)O)C(C)C)C(C)(C)C)C(C)(C)c1cn(C)c2ccccc12 [Hemiasterlin, hemiasterlin] , reported Microtubule polymerization rate (%): 3%

Memo: CNC(C(=O)N[C@H](C(=O)N(C)[C@H](/C=C(\C)C(=O)N[C@H](CCC(=O)O)C(=O)O)C(C)C)C(C)(C)C)C(C)(C)c1ccc(O)cc1 (some centres unmarked) [Example 59] , reported Microtubule polymerization rate (%): 2%

Memo: CN[C@H](C(=O)N[C@H](C(=O)N(C)[C@H](/C=C(\C)C(=O)N[C@@H](CC(=O)O)C(=O)O)C(C)C)C(C)(C)C)C(C)(C)c1cn(C)c2ccccc12 [Example 11] , reported Microtubule polymerization rate (%): 5%

Memo: CN[C@H](C(=O)N[C@H](C(=O)N(C)[C@H](/C=C(\C)C(=O)N[C@H](CCC(=O)O)C(=O)O)C(C)C)C(C)(C)C)C(C)(C)c1cccc(C(F)(F)F)c1 [Example 55] , reported Microtubule polymerization rate (%): 16%

Memo: CN[C@H](C(=O)N[C@H](C(=O)N(C)[C@H](/C=C(\C)C(=O)N[C@H](CCC(=O)O)C(=O)O)C(C)C)C(C)(C)C)C(C)(C)c1cccc(C#N)c1 [Example 60] , reported Microtubule polymerization rate (%): 6%

Memo: CN[C@H](C(=O)N[C@H](C(=O)N(C)[C@H](/C=C(\C)C(=O)N[C@H](CCC(=O)O)C(=O)O)C(C)C)C(C)(C)C)C(C)(C)c1cc(C)cc(C)c1 [Example 62] , reported Microtubule polymerization rate (%): 6%

Memo: C/C(=C\[C@H](C(C)C)N(C)C(=O)[C@@H](NC(=O)[C@H]1CCCCN1C(C)C)C(C)(C)C)C(=O)N[C@H](CCC(=O)O)C(=O)O [Example 57] , reported Microtubule polymerization rate (%): 5%

Memo: CCOC(=O)[C@H](CCC(=O)O)NC(=O)/C(C)=C/[C@H](C(C)C)N(C)C(=O)[C@@H](NC(=O)[C@@H](NC)C(C)(C)c1cn(C)c2ccccc12)C(C)(C)C [Example 13] , reported Microtubule polymerization rate (%): 21%

Memo: CN[C@H](C(=O)N[C@H](C(=O)N(C)[C@H](/C=C(\C)C(=O)N[C@H](CCC(=O)O)C(=O)O)C(C)C)C(C)(C)C)C(C)(C)c1cccc(Br)c1 [Example 69] , reported Microtubule polymerization rate (%): 5%

Memo: CN[C@H](C(=O)N[C@H](C(=O)N(C)[C@H](/C=C(\C)C(=O)N[C@H](CCC(=O)O)C(=O)O)C(C)C)C(C)(C)C)C(C)(C)c1cccc(-c2ccccc2)c1 [Example 67] , reported Microtubule polymerization rate (%): 42%
